Recorded inhibition at 5 µM values for a group of compounds are listed next.
Experimental Target: recombinant human PAI-1 (Homo sapiens)
Test Details: biochemical
Experimental Conditions: read-out: Inhibition Rate of PAI-1 Activity (%), Compound Concentration 5µM
// note: answer is a bare numeric in %

Prompt: Consider the compound CC(C)(C)c1ccc(Oc2cccc(-c3ccc(OC(F)(F)F)cc3)c2CCC(=O)O)cc1 and give its measured inhibition at 5 µM.
Completion: 56

Prompt: // returns reported inhibition at 5 µM for input O=C(O)CCc1cc(-c2ccc(OC(F)(F)F)cc2)ccc1OCCCCc1ccccc1
Completion: 43

Prompt: Could you share which inhibition at 5 µM value was measured for CC(C)(C)c1ccc(CN(C(=O)C(=O)O)c2ccc(Oc3ccc(OC(F)(F)F)cc3)cc2C(F)(F)F)cc1 ?
Completion: 61

Prompt: Form field: reported inhibition at 5 µM of CCCCCOc1ccc(-c2ccc(OC(F)(F)F)cc2)cc1N(Cc1ccc(C(C)(C)C)cc1)C(=O)C(=O)O
Completion: 84

Prompt: Give its inhibition at 5 µM value. Item: CCC(CC)Oc1ccc(-c2ccc(OC(F)(F)F)cc2)cc1N(Cc1ccc(C(C)(C)C)cc1)C(=O)C(=O)O
Completion: 83

More entries:
Prompt: Requested read-out: inhibition at 5 µM. Entry: CC(C)(C)c1ccc(C(c2ccccc2)N(C(=O)C(=O)O)c2ccc(-c3ccc(OC(F)(F)F)cc3)cc2)cc1 (stereo not shown)
Completion: 74

Prompt: Tell me the measured inhibition at 5 µM of CC(C)(C)c1ccc(COc2ccc(Oc3ccc(OC(F)(F)F)cc3)cc2CCC(=O)O)cc1 , please.
Completion: 36

====

Experimental Target: recombinant human PAI-1 (Homo sapiens, UniProt P05121)
Sequence (P05121 24-402): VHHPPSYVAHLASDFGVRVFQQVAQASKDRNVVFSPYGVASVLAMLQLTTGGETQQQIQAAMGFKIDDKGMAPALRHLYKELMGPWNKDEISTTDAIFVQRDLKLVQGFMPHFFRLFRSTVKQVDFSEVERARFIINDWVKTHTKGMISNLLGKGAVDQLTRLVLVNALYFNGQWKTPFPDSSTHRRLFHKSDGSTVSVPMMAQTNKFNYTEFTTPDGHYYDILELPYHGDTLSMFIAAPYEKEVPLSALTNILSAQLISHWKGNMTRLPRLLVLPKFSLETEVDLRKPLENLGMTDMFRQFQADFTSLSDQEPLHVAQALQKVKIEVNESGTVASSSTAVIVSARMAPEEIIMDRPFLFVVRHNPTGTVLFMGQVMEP
Test Details: Test Example 2: Human PAI-1 Inhibitory Activity (pH 7.4 HEPES buffer, 10 minutes incubation with two-chain tPA)
Format: biochemical
Design: purchased Molecular Innovations, Inc
Experimental Conditions: read-out: Inhibition Rate of PAI-1 Activity (%)
Class (by inhibition at 1 µM) -- c1 (below 40%), c2 (40% to below 70%), c3 (70% or more)

Prompt: Returns: class label. Input: CCCCCCCCCCOc1ccc(-c2ccc(OC(F)(F)F)cc2)cc1N(CCCCc1ccccc1)C(=O)C(=O)O
Completion: c3

***
Prompt: Lab log: CCCCCN(C(=O)C(=O)O)c1cc(-c2ccc(OC(F)(F)F)cc2)ccc1OCCCCc1ccccc1 — assign inhibition at 1 µM category
Completion: c2

====

Experimental Target: recombinant human PAI-1 (Homo sapiens)
Test Details: Test Example 2: Human PAI-1 Inhibitory Activity (pH 7.4 HEPES buffer, 10 minutes incubation with two-chain tPA)
Format: biochemical
Parameters: purchased Molecular Innovations, Inc
Experimental Conditions: read-out: Inhibition Rate of PAI-1 Activity (%)
// reported inhibition at 0.1 µM per item
Reply with just the number (in %).

Consider the reported inhibition at 0.1 µM for these compounds:
Prompt: Tell me the measured inhibition at 0.1 µM of CCCCC(Oc1cc(-c2ccc(OC(F)(F)F)cc2)ccc1Oc1ccc(C(C)(C)C)cc1)C(=O)O (stereo not drawn) , please.
Completion: 0

Prompt: Name the reported inhibition at 0.1 µM value associated with the compound CC(C)(C)c1ccc(Oc2cc(-c3ccc(F)cc3)ccc2OCC(=O)O)cc1
Completion: 26

Further cases:
Prompt: Give its inhibition at 0.1 µM value. Item: O=C(O)C(=O)N(Cc1ccc(-c2ccc(OC(F)(F)F)cc2)cc1)c1ccccc1-c1ccccc1
Completion: 0

Prompt: Tell me the measured inhibition at 0.1 µM of O=C(O)COc1ccc(-c2ccc(OC(F)(F)F)cc2)cc1OCCCCc1ccccc1 , please.
Completion: 2

Prompt: What measured inhibition at 0.1 µM goes with O=C(O)C(=O)N(CCCCc1ccccc1)c1ccc(-c2ccc3ccccc3c2)cc1 ?
Completion: 26

Prompt: Entry CCCCOc1ccc(N(CCCCc2ccccc2)C(=O)C(=O)O)cc1-c1ccc(OC(F)(F)F)cc1 : reported inhibition at 0.1 µM = ?
Completion: 0

Prompt: I would be grateful if you could share the reported inhibition at 0.1 µM for CCCCc1ccc(Oc2cc(-c3ccc(OC(F)(F)F)cc3)ccc2/C=C/C(=O)O)cc1 .
Completion: 11

Prompt: Can you look up the measured inhibition at 0.1 µM of O=C(O)/C=C/c1ccc(-c2ccc(OC(F)(F)F)cc2)cc1Oc1ccc(OC(F)(F)F)cc1 for me?
Completion: 7

====

Experimental Target: recombinant human PAI-1 (Homo sapiens)
Test Details: Test Example 2: Human PAI-1 Inhibitory Activity (pH 7.4 HEPES buffer, 10 minutes incubation with two-chain tPA)
Format: biochemical
Design: purchased Molecular Innovations, Inc
Experimental Conditions: read-out: Inhibition Rate of PAI-1 Activity (%)
Hi, to clarify the labels: Fulfilled covers inhibition at 0.3 µM from 20% upward, Not fulfilled covers anything below 20%.

Some solved cases for reference:
Prompt: Evaluate CCCCCCC(Oc1cc(-c2ccc(OC(F)(F)F)cc2)ccc1Oc1ccccc1)C(=O)O (stereo not shown) : inhibition at 0.3 µM at minimum 20%?
Completion: Not fulfilled

Prompt: # bool: inhibition at 0.3 µM of CC(C)(C)c1ccc(Oc2ccc(-c3ccc(OC(F)(F)F)cc3)cc2N(CCCCc2ccccc2)C(=O)C(=O)O)cc1 >= 20%
Completion: Fulfilled

Prompt: Decide: is the reported value of inhibition at 0.3 µM for CC(C)(C)c1ccc(Oc2cc(Nc3ccc(OC(F)(F)F)cc3)ccc2/C=C/C(=O)O)cc1 equal to or greater than 20%?
Completion: Fulfilled

Prompt: Does CC(C)(C)c1ccc(CN(C(=O)C(=O)O)c2ccc(OCc3ccccc3)c(-c3ccc(OC(F)(F)F)cc3)c2)cc1 have a reported inhibition at 0.3 µM of at least 20%?
Completion: Not fulfilled

Shift focus to the following entry.
Prompt: Check if inhibition at 0.3 µM >= 20% (inclusive). Item: CC(C)(C)c1ccc(CN(C(=O)C(=O)O)c2cccc(Oc3ccc(OC(F)(F)F)cc3)c2)cc1
Completion: Not fulfilled

====

Recorded inhibition at 1 µM values for a group of compounds are listed next.
Experimental Target: recombinant human PAI-1 (Homo sapiens)
Test Details: Test Example 2: Human PAI-1 Inhibitory Activity (pH 7.4 HEPES buffer, 10 minutes incubation with two-chain tPA)
Assay type: biochemical
Design: purchased Molecular Innovations, Inc
Experimental Conditions: read-out: Inhibition Rate of PAI-1 Activity (%)
A number alone suffices; assume %.

Example entries and their recorded answers appear below.
Prompt: # get_value(readout= inhibition at 1 µM, system= recombinant human PAI-1 (Homo sapiens)) for Cc1ccc(N(Cc2ccc(C(C)(C)C)cc2)C(=O)C(=O)O)cc1-c1ccc(OC(F)(F)F)cc1 [Compound 176]
Completion: 21

Prompt: State its inhibition at 1 µM on recombinant human PAI-1 (Homo sapiens): O=C(O)CCc1ccc(-c2ccc(OC(F)(F)F)cc2)cc1Oc1ccc(OC(F)(F)F)cc1 [Compound 479]
Completion: 70

Prompt: Under recombinant human PAI-1 (Homo sapiens): inhibition at 1 µM value of O=C(O)C(=O)N(Cc1ccc(-c2ccc(OC(F)(F)F)cc2)cc1)c1ccccc1-c1ccccc1 [Compound 632] ?
Completion: 31

Prompt: Please state recorded inhibition at 1 µM (tested on recombinant human PAI-1 (Homo sapiens)) of CC(C)(C)c1cccc(Oc2ccc(-c3ccc(OC(F)(F)F)cc3)cc2CCC(=O)O)c1 [Compound 438]
Completion: 50

Prompt: recombinant human PAI-1 (Homo sapiens) / inhibition at 1 µM / CC(C)c1ccc(Sc2cc(-c3ccc(OC(F)(F)F)cc3)ccc2/C=C/C(=O)O)cc1 [Compound 516] : value?
Completion: 98

More entries:
Prompt: Hi! What's the reported inhibition at 1 µM for CC(C)c1ccccc1Oc1cc(-c2ccc(OC(F)(F)F)cc2)ccc1CCC(=O)O [Compound 491] on recombinant human PAI-1 (Homo sapiens)?
Completion: 66

Prompt: So what inhibition at 1 µM did CCC(CC)Oc1ccc(-c2ccc(OC(F)(F)F)cc2)cc1N(CCCCc1ccccc1)C(=O)C(=O)O [Compound 369] get with recombinant human PAI-1 (Homo sapiens)?
Completion: 70

Prompt: Record CCCCC(c1ccc(C(C)(C)C)cc1)N(C(=O)C(=O)O)c1ccc(-c2ccc(OC(F)(F)F)cc2)cc1 (stereo not drawn) [Compound 221] : what is its inhibition at 1 µM with recombinant human PAI-1 (Homo sapiens)?
Completion: 55

Prompt: Request body: readout inhibition at 1 µM, system recombinant human PAI-1 (Homo sapiens), query CC(C)(C)c1ccc(CN(C(=O)C(=O)O)c2ccc(Cl)cc2-c2ccc(OC(F)(F)F)cc2)cc1 [Compound 192] . Return the value.
Completion: 35

Prompt: # query: inhibition at 1 µM | item Cc1cc(C)cc(-c2ccc(/C=C/C(=O)O)c(Oc3ccc(C(C)(C)C)cc3)c2)c1 [Compound 496] | system: recombinant human PAI-1 (Homo sapiens)
Completion: 85

====

Experimental Target: recombinant human PAI-1 (Homo sapiens)
Test Details: Test Example 2: Human PAI-1 Inhibitory Activity (pH 7.4 HEPES buffer, 10 minutes incubation with two-chain tPA)
Type: biochemical
Parameters: purchased Molecular Innovations, Inc
Experimental Conditions: read-out: Inhibition Rate of PAI-1 Activity (%)
# inhibition at 10 µM per record follows

Some molecules with recorded inhibition at 10 µM:
Prompt: Which inhibition at 10 µM is listed for CC(C)(C)c1ccc(-c2ccc(CN(C(=O)C(=O)O)c3ccc(OC(F)(F)F)cc3)cc2)cc1 [Compound 615] ?
Completion: > 99%

Prompt: What value of inhibition at 10 µM has been reported for the following molecule? CN(C(=O)c1ccc(OC(F)(F)F)cc1)c1ccc(OCc2ccc(C(C)(C)C)cc2)c(CCC(=O)O)c1 [Compound 416]
Completion: > 99%

Next:
Prompt: inhibition at 10 µM lookup needed for O=C(O)C(=O)N(Cc1ccc(-c2ccc(OC(F)(F)F)cc2)cc1)c1ccccc1 [Compound 611] , thanks.
Completion: 45%
